The measured values listed here are drawn from ChEMBL document CHEMBL1122517.

target: Estrogen receptor (Mus musculus) (UniProt O08537+P19785); assay: Uterotrophic activity in mice as uterus dry weight (mg)/body weight (g) *100 at 5 ug dose; assay type: functional, tissue-based
Sequence (O08537 whole entry, looked up): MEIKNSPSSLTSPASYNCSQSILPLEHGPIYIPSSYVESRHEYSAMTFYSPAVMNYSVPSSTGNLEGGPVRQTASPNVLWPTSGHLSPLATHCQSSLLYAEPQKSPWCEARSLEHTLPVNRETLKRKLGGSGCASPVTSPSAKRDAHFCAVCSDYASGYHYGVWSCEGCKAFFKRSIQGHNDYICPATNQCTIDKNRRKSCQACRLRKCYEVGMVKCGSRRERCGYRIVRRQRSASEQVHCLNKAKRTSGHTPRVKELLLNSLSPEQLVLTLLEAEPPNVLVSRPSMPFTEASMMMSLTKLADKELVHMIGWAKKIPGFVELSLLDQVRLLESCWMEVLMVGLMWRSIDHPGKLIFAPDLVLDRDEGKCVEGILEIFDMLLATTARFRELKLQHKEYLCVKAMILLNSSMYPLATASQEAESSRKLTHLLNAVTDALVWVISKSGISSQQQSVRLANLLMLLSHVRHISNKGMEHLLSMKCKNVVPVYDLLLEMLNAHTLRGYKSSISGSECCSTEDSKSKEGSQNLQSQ
Sequence (P19785 whole entry, looked up): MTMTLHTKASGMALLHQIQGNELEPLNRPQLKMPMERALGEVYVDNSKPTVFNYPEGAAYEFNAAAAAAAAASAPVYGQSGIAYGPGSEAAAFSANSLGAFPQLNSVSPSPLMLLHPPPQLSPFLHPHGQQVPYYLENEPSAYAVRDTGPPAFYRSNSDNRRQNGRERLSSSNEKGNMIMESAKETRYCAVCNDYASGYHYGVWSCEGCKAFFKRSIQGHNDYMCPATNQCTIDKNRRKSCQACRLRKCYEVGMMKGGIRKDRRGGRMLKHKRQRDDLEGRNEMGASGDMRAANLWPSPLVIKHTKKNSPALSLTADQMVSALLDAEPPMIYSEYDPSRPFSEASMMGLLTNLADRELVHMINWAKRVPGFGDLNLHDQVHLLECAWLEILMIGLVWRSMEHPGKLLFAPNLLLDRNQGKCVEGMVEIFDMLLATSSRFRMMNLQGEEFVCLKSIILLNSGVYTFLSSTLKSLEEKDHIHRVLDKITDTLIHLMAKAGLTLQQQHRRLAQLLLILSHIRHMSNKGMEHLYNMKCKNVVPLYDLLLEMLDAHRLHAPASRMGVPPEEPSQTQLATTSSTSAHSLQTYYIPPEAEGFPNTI
Measured Uterotrophic effect of individual entries
measureName: Uterotrophic effect

INSERT INTO assay_data (molsmiles, measurename, valuemeasured) VALUES
  ('CCc1c(-c2ccc(OC(C)=O)cc2)n(C)c2cc(OC(C)=O)ccc12', 'Uterotrophic effect', 16.2),
  ('CCc1c(-c2ccc(OC(C)=O)cc2)n(CC)c2cc(OC(C)=O)ccc12', 'Uterotrophic effect', 45.6),
  ('CCn1c(-c2ccc(OC(C)=O)cc2)c(C)c2ccc(OC(C)=O)cc21', 'Uterotrophic effect', 41.5);

----------
molecular target: Estrogen receptor (Mus musculus) (UniProt O08537+P19785); assay: Anti-uterotrophic activity in mice as uterus dry weight (mg)/body weight (g) *100 at 1 ug dose; format: functional, tissue-based
Measured Anti-uterotrophic effect of individual entries
measureName: Anti-uterotrophic effect

INSERT INTO measurements (molsmiles, valuemeasured) VALUES
  ('CC(=O)Oc1ccc(-c2c(C)c3ccc(OC(C)=O)cc3n2C)cc1', 32.3),
  ('CCCn1c(-c2ccc(OC(C)=O)cc2)c(C)c2cc(OC(C)=O)ccc21', 45.2),
  ('CCc1c(-c2ccc(OC(C)=O)cc2)n(C)c2cc(OC(C)=O)ccc12', 47.6),
  ('CC(=O)Oc1ccc(-c2c(C)c3cc(OC(C)=O)ccc3n2C)cc1', 40),
  ('CCn1c(-c2cccc(OC(C)=O)c2)c(C)c2ccc(OC(C)=O)cc21', 46.9);

----------
target: Estrogen receptor (Mus musculus) (UniProt O08537+P19785); test: Uterotrophic activity in mice as uterus dry weight (mg)/body weight (g) *100 at 125 ug dose; format: functional, tissue-based
Measured Uterotrophic effect of individual entries
measureName: Uterotrophic effect

INSERT INTO assay_data (molsmiles, system, valuemeasured) VALUES
  ('CCn1c(-c2cccc(OC(C)=O)c2)c(C)c2ccc(OC(C)=O)cc21', 'Estrogen receptor (Mus musculus) (UniProt O08537+P19785)', 39.1),
  ('CCc1c(-c2ccc(OC(C)=O)cc2)n(C)c2cc(OC(C)=O)ccc12', 'Estrogen receptor (Mus musculus) (UniProt O08537+P19785)', 30),
  ('CC(=O)Oc1ccc(-c2c(C)c3cc(OC(C)=O)ccc3n2C)cc1', 'Estrogen receptor (Mus musculus) (UniProt O08537+P19785)', 20.9),
  ('CCc1c(-c2ccc(OC(C)=O)cc2)n(CC)c2cc(OC(C)=O)ccc12', 'Estrogen receptor (Mus musculus) (UniProt O08537+P19785)', 44.7),
  ('CCc1c(-c2ccc(OC(C)=O)cc2)n(CC)c2ccc(OC(C)=O)cc12', 'Estrogen receptor (Mus musculus) (UniProt O08537+P19785)', 40.2),
  ('CCn1c(-c2ccc(OC(C)=O)cc2)c(C)c2ccc(OC(C)=O)cc21', 'Estrogen receptor (Mus musculus) (UniProt O08537+P19785)', 42.4);

----------
target: Estrogen receptor (Mus musculus) (UniProt O08537+P19785); experiment: Anti-uterotrophic activity in mice as uterus dry weight (mg)/body weight (g) *100 at 25 ug dose; type: functional, tissue-based
measureName: Anti-uterotrophic effect

INSERT INTO measurements (molsmiles, measurename, valuemeasured) VALUES
  ('CC(=O)Oc1ccc(-c2c(C)c3ccc(OC(C)=O)cc3n2C)cc1', 'Anti-uterotrophic effect', 34.3),
  ('CCc1c(-c2ccc(OC(C)=O)cc2)n(C)c2cc(OC(C)=O)ccc12', 'Anti-uterotrophic effect', 33.5),
  ('CCCn1c(-c2ccc(OC(C)=O)cc2)c(C)c2cc(OC(C)=O)ccc21', 'Anti-uterotrophic effect', 29.8),
  ('CC(=O)Oc1ccc(-c2c(C)c3cc(OC(C)=O)ccc3n2C)cc1', 'Anti-uterotrophic effect', 36.6),
  ('CCn1c(-c2cccc(OC(C)=O)c2)c(C)c2ccc(OC(C)=O)cc21', 'Anti-uterotrophic effect', 40.6);
